tested on: AABA1060 (clinical isolate of Acinetobacter baumannii); assay: MIC broth microdilution, AABA1060; type: cell-based; settings: Acinetobacter baumannii, read-out: MIC AABA1060
The following molecules are shown together with reported MIC values.

MOLECULE	MIC
CC(C)(N)[C@H](NC(=O)c1ccc(/C=C/C#Cc2ccc(CNC3CC3)cc2)cc1)C(=O)NO [Example 113-6]	< 2 µg/mL
C[C@@H](N)[C@H](NC(=O)c1ccc(C#Cc2ccc(OC3CC3)cc2)cc1)C(=O)NO [Example 125-1]	< 2 µg/mL
C[C@@H](N)[C@H](NC(=O)c1ccc(C#CC#Cc2ccc(CN3CCS(=O)(=O)CC3)cc2)cc1)C(=O)NO [Example 86-6]	2 to 16 µg/mL
CC(C)(O)[C@H](NC(=O)c1ccc(C#CC#Cc2ccc(F)cc2)cc1)C(=O)NO [Example 82-19]	< 2 µg/mL
CC(C)(N)C(NC(=O)c1ccc(C#CC#Cc2ccncc2)cc1)C(=O)NO (stereo not drawn) [Example 88-6]	2 to 16 µg/mL
C[C@@H](N)[C@H](NC(=O)c1ccc(C#Cc2ccc(CN3CCN(S(C)(=O)=O)CC3)cc2)cc1)C(=O)NO [Example 115-7]	2 to 16 µg/mL
O=C(N[C@H](C(=O)NO)C1CCS(=O)(=O)CC1)c1ccc(/C=C/C#Cc2ccc(CN3CCOCC3)cc2)cc1 [Example 110-8]	16 to 64 µg/mL
C[C@@H](O)[C@H](NC(=O)c1ccc(C#C/C=C/C2CC2)cc1)C(=O)NO [Example 107-3]	2 to 16 µg/mL
CC(C)(N)C(NC(=O)c1ccc(C#Cc2ccc(CO)cc2)cc1)C(=O)NO (stereo not drawn) [Example 137-5]	2 to 16 µg/mL

====

system: AECO001 (ATCC25922); experiment: MIC broth microdilution, AECO001; type: cell-based, E. coli; conditions: Escherichia coli, ATCC25922, read-out: MIC AECO001

MOLECULE	MIC
C[C@@H](O)[C@H](NC(=O)c1ccc(N2CCN(c3ccc(CN4CCOCC4)cc3)CC2)cc1)C(=O)NO [Example 43-7]	> 64 µg/mL
C[C@@H](N)[C@H](NC(=O)c1ccc(/C=C/C#Cc2ccc(F)cc2)cc1)C(=O)NO [Example 114-2]	< 2 µg/mL
C[C@@H](N)[C@H](NC(=O)c1ccc(C#CC#CCC2CC2)cc1)C(=O)NO [Example 91-27]	< 2 µg/mL
C[C@@H](N)[C@H](NC(=O)c1ccc(C#Cc2ccc(CN3CCN(S(C)(=O)=O)CC3)cc2)cc1)C(=O)NO [Example 115-7]	< 2 µg/mL

====

test system: AABA1060 (clinical isolate of Acinetobacter baumannii); experiment: MIC broth microdilution, AABA1060; assay type: cell-based; settings: Acinetobacter baumannii, read-out: MIC AABA1060

MOLECULE	MIC
C[C@@H](N)[C@H](NC(=O)c1ccc(/C=C/C#Cc2cccc(Cl)c2)cc1)C(=O)NO [Example 114-4]	2 to 16 µg/mL
C[C@@H](N)[C@H](NC(=O)c1ccc(C#Cc2ccc(CNCc3nccn3C)cc2)cc1)C(=O)NO [Example 119-3]	16 to 64 µg/mL
NCC(=O)NCc1ccc(C#Cc2ccc(C(=O)N[C@@H](CN)C(=O)NO)cc2)cc1 [Example 116-1]	16 to 64 µg/mL
CC(C)(N)[C@H](NC(=O)c1ccc(/C=C/C#CC2CCCC2)cc1)C(=O)NO [Example 114-20]	< 2 µg/mL
C[C@@H](O)[C@H](NC(=O)c1ccc(N2CCC(c3ccc(CN4CCOCC4)cc3)CC2)cc1)C(=O)NO [Example 42-7]	16 to 64 µg/mL
CC(O)[C@H](NS(=O)(=O)c1ccc(C#Cc2ccc(CN3CCOCC3)cc2)cc1)C(=O)NO (stereo partly drawn) [Example 62-7]	16 to 64 µg/mL
CC(C)(O)[C@H](NC(=O)c1ccc(C#CC#Cc2ccccn2)cc1)C(=O)NO [Example 88-7]	2 to 16 µg/mL
C[C@@H](O)[C@H](NC(=O)c1ccc(C#Cc2cccc(OC(F)(F)F)c2)cc1)C(=O)NO [Example 133-11]	16 to 64 µg/mL
C[C@@H](N)[C@H](NC(=O)c1ccc(C#CC#CCC2CCCC2)cc1)C(=O)NO [Example 91-25]	16 to 64 µg/mL
O=C(N[C@H](C(=O)NO)C1CCOCC1)c1ccc(/C=C/C#Cc2ccc(CN3CCOCC3)cc2)cc1 [Example 110-4]	16 to 64 µg/mL
C[C@@H](N)[C@H](NC(=O)c1ccc(C#C/C=C/c2ccc(CNC3CC3)cc2)cc1)C(=O)NO [Example 102-2]	2 to 16 µg/mL
CC(C)(O)[C@H](NC(=O)c1ccc(/C=C/C#Cc2ccc(CN3CCOCC3)cc2)cc1)C(=O)NO [Example 110-7]	< 2 µg/mL
C[C@@H](N)[C@H](NC(=O)c1ccc(/C=C/C#Cc2cccnc2)cc1)C(=O)NO [Example 114-9]	2 to 16 µg/mL
C[C@@H](O)[C@H](NC(=O)c1ccc(/C=C/C#Cc2cccnc2)cc1)C(=O)NO [Example 114-13]	2 to 16 µg/mL
C[C@@H](N)[C@H](NC(=O)c1ccc(C#CC#CC(C)(C)O)cc1)C(=O)NO [Example 91-30]	16 to 64 µg/mL
